# target or system: LARP1 DM15 (Homo sapiens, UniProt Q6PKG0-3 796-946)
# assay summary: EMSA; Competition assays: 20 mM Tris pH 8, 150 mM NaCl, 10% glycerol, 1 mM DTT, 0.5 ug BSA, 0.5 ug tRNA, 30 min on ice, native gel; EMSA as in Lahr et al. 2015 with RNA <=200 pM
# applied conditions: protein: recombinant; label: 5' 32P
reported metric: Kd (µM)

[[record]]
binder = "GCCUCUUUUCCGUGGCGCCUCGGAGGCGUUCAGCUGCUUCAAG (ssRNA) [G-RPS6 (uncapped non-TOP)]"
observed = 7.5

